These data points were gathered from PubChem BioAssay (NCI).

Here the recorded growth inhibition is given for each entry.
- assay.text: NCI Yeast Anticancer Drug Screen. Data for the bub3 strain (AID 167)
- test.parameters: S. cerevisiae bub3 mutant strain, at 50.0 µM, stronger effect = higher value
- Method: Growth inhibition of yeast strains with defined genetic alterations is measured as a screen for potential anti-cancer activity. Selected strains with alterations in DNA damage repair or cell cycle control were exposed to compounds and growth inhibition was measured relative to vehicle treated controls. The strain used in this assay is bub3
Compounds without any hit were thinned out: in the full panel of roughly 79,000, 15% have a hit.
Give the number; % is assumed, so skip it.

Worked examples, 5 compounds total:
[[record]]
compound = "CCOC(=O)C(CCSC)(CCN(C)Cc1ccccc1)C(=O)OCC"
observed_value = 8.85

[[record]]
compound = "CCCCCSCCC(=O)O"
observed_value = -1.2

[[record]]
compound = "CC1CCc2ccccc2N1C(=O)c1cccc([N+](=O)[O-])c1C(=O)O (centres undefined)"
observed_value = 21.7

[[record]]
compound = "c1ccc2c(c1)C(=NOc1nc3ccccc3c3ccccc13)c1ccccc1-2"
observed_value = 7.95

[[record]]
compound = "CC(C)(C)NC(=O)Oc1ccc(-c2ccccc2)cc1"
observed_value = 18.2


## Task What value of measured growth inhibition is listed for Fc1ccc2c(c1)CC(CBr)O2 (centres undefined) ?
## Result -1.95

## Task What value of measured growth inhibition is listed for "NC(=S)N/N=C\CC(O)(C(F)(F)F)C(F)(F)F" ?
## Result 7.1

## Task What value of measured growth inhibition is listed for "Nc1c(N=Nc2ccc(S(=O)(=O)O)cc2)cc2c3c(cccc13)CC2" ?
## Result -39.5

## Task What value of measured growth inhibition is listed for "c1ccc(C(N=NC(c2ccccc2)c2ccccc2)c2ccccc2)cc1" ?
## Result -21.8

## Task What value of measured growth inhibition is listed for "NNc1nc2ccccc2[nH]1" ?
## Result 8.9

## Task What value of measured growth inhibition is listed for "Clc1ccc2c(N3CCC(CCC4CCN(c5ncnc6cc(Cl)ccc56)CC4)CC3)ncnc2c1" ?
## Result -14.6

## Task What value of measured growth inhibition is listed for O=C(O)COc1ccc2ccccc2c1 (tested in a mixture with another compound) ?
## Result -0.1

## Task What value of measured growth inhibition is listed for "CCOC(=O)C(CC(CC(C(=O)OCC)C(=O)OCC)=C(C)C)C(=O)OCC" ?
## Result 24.2

* * *

Here the recorded growth inhibition is given for each entry.
- assay.text: NCI Yeast Anticancer Drug Screen. Data for the bub3 strain (AID 167)
- test.parameters: S. cerevisiae bub3 mutant strain, at 50.0 µM, stronger effect = higher value
This is part of a sample that, as a whole, favours compounds with a hit. Of some 79,000 tested, about 15% had one in any assay.
Give the number; % is assumed, so skip it.

[[record]]
compound = "CCCNC(=O)N(CCC)S(=O)(=O)c1ccc(Cl)cc1"
reported_endpoint = "growth inhibition"
observed_value = 22.7


## Task What value of measured growth inhibition is listed for "N#C/C(N)=C(\C#N)N=CNc1ccc(N)cc1" ?
## Result 1.4

## Task What value of measured growth inhibition is listed for CC(c1ccccc1)C(C)(C#N)c1ccccc1 (stereo unspecified) ?
## Result 10.5

## Task What value of measured growth inhibition is listed for "N#CCc1nc2ccccc2[nH]1" ?
## Result 6.25

## Task What value of measured growth inhibition is listed for "CC(C)(Oc1ccc2c(=O)cc(-c3ccc(Cl)cc3)oc2c1)C(=O)Nc1c(Cl)cccc1Cl" ?
## Result 2.75

## Task What value of measured growth inhibition is listed for Cc1ccc(S(=O)(=O)OC2C3OC(C)(C)OC3OC2C(c2cc(O)c3c(c2O)C(=O)c2ccccc2C3=O)c2cc(O)c3c(c2O)C(=O)c2ccccc2C3=O)cc1 (stereo unspecified) ?
## Result -8.2

## Task What value of measured growth inhibition is listed for "COC(=O)[C@]1(C)CCC[C@]2(C)c3cc(Br)c(C(C)C)cc3CC[C@H]12" ?
## Result -4.55

## Task What value of measured growth inhibition is listed for "Cc1ccc(S(=O)(=O)Nc2ccc(S(C)(=O)=O)cc2)cc1" ?
## Result 3.85

## Task What value of measured growth inhibition is listed for O=C(c1ccncc1)C(C(c1ccccc1)N1CCOCC1)N1CCOCC1 (stereo unspecified) ?
## Result 13.6

## Task What value of measured growth inhibition is listed for "CCc1ccccc1NC(C)=O" ?
## Result 0.25

* * *

- assay.text: NCI Yeast Anticancer Drug Screen. Data for the mec2-1 strain (AID 157)
- test.parameters: S. cerevisiae mec2-1 strain, at 50.0 µM, stronger effect = higher value
- Description: Growth inhibition of yeast strains with defined genetic alterations is measured as a screen for potential anti-cancer activity. Selected strains with alterations in DNA damage repair or cell cycle control were exposed to compounds and growth inhibition was measured relative to vehicle treated controls. The strain used in this assay is mec2-1
This is part of a sample that, as a whole, favours compounds with a hit. Of some 79,000 tested, about 15% had one in any assay.
Here the recorded growth inhibition is given for each entry.
Give the number; % is assumed, so skip it.

Worked examples, 3 compounds total:
[[record]]
compound = "O=[N+]([O-])c1ccc(N=Nc2c(O)c3ccccc3c3ccccc23)c([N+](=O)[O-])c1"
observed_value = 10.3

[[record]]
compound = "COc1cc(OC)nc(NS(=O)(=O)c2ccc(N)cc2)n1"
observed_value = -3.8

[[record]]
compound = "CCCCCCCCCCCCn1[nH]c(C)c(C(=S)SCCCCCCCC)c1=O"
observed_value = 1.05


## Task What value of measured growth inhibition is listed for CCN(CC)c1nc2c(c(=O)n(C)c(=O)n2C)n1CCCNCC(O)c1ccc(O)c(O)c1 (stereo not drawn) ?
## Result -16.4

## Task What value of measured growth inhibition is listed for "C[S+](C)CC(=O)c1ccccc1O" ?
## Result -9.7

## Task What value of measured growth inhibition is listed for CC1(C)C2CC3C(=CCC4C(=O)C5CC=C6C(CC7CC6C7(C)C)C5C(=O)C43)C1C2 (stereo not drawn) ?
## Result -6.1

## Task What value of measured growth inhibition is listed for "COCCCNC(=O)C1=CCCN(C)C1" ?
## Result -3.45

## Task What value of measured growth inhibition is listed for CN(C)CCCC1(O)c2ccccc2Sc2cc(Cl)ccc21 (stereo not drawn) ?
## Result 12.9

* * *

- assay.text: NCI Yeast Anticancer Drug Screen. Data for the rad50 strain (AID 155);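 further: 0% = growth of vehicle-only cultures of the same strain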
- test.parameters: S. cerevisiae rad50 strain growth inhibition; at 50.0 µM; stronger effect = higher value
- Experimental: Growth inhibition of yeast strains with defined genetic alterations is measured as a screen for potential anti-cancer activity. Selected strains with alterations in DNA damage repair or cell cycle control were exposed to compounds and growth inhibition was measured relative to vehicle treated controls. The strain used in this assay is rad50
The panel holds about 79,000 compounds, 15% with a hit somewhere; the sample as a whole holds those more often.
reported.endpoint: growth inhibition (%)
Give the number; % is assumed, so skip it.

Worked examples, 5 compounds total:
[[record]]
compound = "O=C(Nc1nc(C23CC4CC(CC(C4)C2)C3)cs1)c1cc2cc(Cl)ccc2oc1=O"
observed_value = -32.2

[[record]]
compound = "CCOC(=O)/C(C#N)=C/C=C1C=CN(C)C=C1"
observed_value = 8.95

[[record]]
compound = "C[N+]1(C(CO)Cc2c[nH]c3ccccc23)Cc2ccccc2C1 (configuration not stated)"
observed_value = 10.6

[[record]]
compound = "Cc1ccc(NC(=S)N(C)C)cc1"
observed_value = 14.5

[[record]]
compound = "CCC1C[N+]2(C)CCc3cc(OC)c(OC)cc3C2CC1=O (configuration not stated)"
observed_value = -10.2


## Task What value of measured growth inhibition is listed for "Oc1ccc(-c2ccc(Br)cc2)cc1" ?
## Result -25.1

## Task What value of measured growth inhibition is listed for C=CCC12CC(C)OC1=Nc1ccccc1NC2=O (configuration not stated) ?
## Result -0.95

* * *

- assay.text: NCI Yeast Anticancer Drug Screen. Data for the sgs1 mgt1 strain (AID 161);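 further: 0% = growth of cultures given vehicle only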
- test.parameters: S. cerevisiae sgs1 mgt1 strain, at 50.0 µM, stronger effect = higher value
About 79,000 compounds went through this panel and 15% of them were active in at least one assay; those are over-represented in the sample as a whole.
reported.endpoint: growth inhibition (%)
Give the number; % is assumed, so skip it.

Worked examples, 7 molecules total:
[[record]]
molecule = "Cc1nc(C#N)c(=N)n(CCCO)c1-c1ccccc1"
observed_value = 10.3

[[record]]
molecule = "CN(N=O)C(N)=NC(=O)c1ccccc1"
observed_value = 20.9

[[record]]
molecule = "COc1cc2oc3c(C)c(=O)cc4oc(-c5ccccc5)cc(c2c2c1CCC(c1ccccc1)O2)c43 (stereo not drawn)"
observed_value = -20.1

[[record]]
molecule = "O=C(O)c1ccc2c(c1)C(=O)c1c(c(O)c3ccccc3c1O)C2=O"
observed_value = 9.6

[[record]]
molecule = "Nc1nc2c(ncn2C2C=CC(CO)C2)c(=O)[nH]1 (stereo not drawn)"
observed_value = 3.9

[[record]]
molecule = "OCCNCc1cccc(-c2ccccc2)c1O"
observed_value = 15.9

[[record]]
molecule = "NCOC(=O)Cc1ccc(Br)cc1"
observed_value = -0.35


Could you now look at the following molecule, please?
## Task What value of measured growth inhibition is listed for "Cc1ncc(CO)c(Cc2ccc(N(C)C)cc2)c1O" ?
## Result -5.9
